Test System: T1, Cynomolgus monkey CD98 ECD with C-terminal His-tag (SEQ ID NO: 127) (cynomolgus monkey, UniProt P08195 105-529 (human entry))
T1 construct: The entry includes the linker and the polyhistidine tag; also called cyCD98 ECD
T1 chain: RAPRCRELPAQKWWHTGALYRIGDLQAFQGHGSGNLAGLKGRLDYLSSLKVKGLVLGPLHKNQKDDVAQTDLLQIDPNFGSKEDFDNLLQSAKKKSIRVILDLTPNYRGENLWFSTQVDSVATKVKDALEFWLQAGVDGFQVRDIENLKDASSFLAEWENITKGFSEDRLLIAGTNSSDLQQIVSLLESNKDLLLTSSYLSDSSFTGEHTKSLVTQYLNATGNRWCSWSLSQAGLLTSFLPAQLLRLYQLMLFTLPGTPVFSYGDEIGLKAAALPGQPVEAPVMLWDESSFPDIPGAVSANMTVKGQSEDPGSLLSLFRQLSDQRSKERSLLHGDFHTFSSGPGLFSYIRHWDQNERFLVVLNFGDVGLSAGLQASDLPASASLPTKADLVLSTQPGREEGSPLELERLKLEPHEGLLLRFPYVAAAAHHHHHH
Measurement Protocol: SPR (Biacore), recombinant CD98 ECD
pKd: −log10 of the molar value.
Observable: pKd

[[record]]
binder = "huAb105 (antibody, V domains shown, Framework re-engineered humanized clone (parent huAb15v1), expressed as full-length IgG) VH: EVQLVESGGGLVQPGGSLRLSCAASGFTFSDYTMAWVRQAPGKGLEWVATIIYSGRGTYYRDAVKGRFTISRDNAKNTLYLQMNSLRAEDTAVYYCARQSDHTYYYWGYFDYWGQGTMVTVSS VL: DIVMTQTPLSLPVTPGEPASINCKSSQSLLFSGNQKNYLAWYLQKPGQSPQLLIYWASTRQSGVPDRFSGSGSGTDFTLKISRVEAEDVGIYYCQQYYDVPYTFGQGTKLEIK"
number = 8.85

[[record]]
binder = "huAb102 (antibody, human IgG1, kappa, L234A L235A, V domains shown, Framework re-engineered humanized clone (parent huAb3v1); also called CL-huAb102) VH: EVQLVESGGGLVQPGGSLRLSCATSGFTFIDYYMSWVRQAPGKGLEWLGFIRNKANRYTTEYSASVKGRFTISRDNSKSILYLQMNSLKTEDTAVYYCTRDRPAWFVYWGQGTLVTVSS VL: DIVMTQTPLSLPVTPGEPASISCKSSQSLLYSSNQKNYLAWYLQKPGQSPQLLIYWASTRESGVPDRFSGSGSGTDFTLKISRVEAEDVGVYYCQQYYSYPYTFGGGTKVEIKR"
number = 7.68

[[record]]
binder = "huAb101 (antibody, V domains shown, Framework re-engineered humanized clone (parent huAb3v1), expressed as full-length IgG) VH: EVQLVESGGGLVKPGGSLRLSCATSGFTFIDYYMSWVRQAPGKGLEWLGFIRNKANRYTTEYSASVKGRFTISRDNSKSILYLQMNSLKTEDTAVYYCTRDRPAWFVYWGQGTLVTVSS VL: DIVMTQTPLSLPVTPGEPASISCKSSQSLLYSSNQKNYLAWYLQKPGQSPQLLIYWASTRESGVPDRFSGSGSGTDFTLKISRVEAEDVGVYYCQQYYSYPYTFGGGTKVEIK"
number = 7.64

[[record]]
binder = "huAb104 (antibody, human IgG1, kappa, L234A L235A, V domains shown, Framework re-engineered humanized clone (parent huAb3v2); also called CL-huAb104) VH: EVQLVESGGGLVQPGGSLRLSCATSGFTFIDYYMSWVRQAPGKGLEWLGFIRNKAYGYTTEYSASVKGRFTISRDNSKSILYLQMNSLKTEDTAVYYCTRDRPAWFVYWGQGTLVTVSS VL: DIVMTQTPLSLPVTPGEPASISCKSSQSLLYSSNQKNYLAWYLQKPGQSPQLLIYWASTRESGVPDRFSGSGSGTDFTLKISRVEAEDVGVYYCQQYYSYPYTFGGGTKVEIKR"
number = 7.85

